STUDY_TARGET: serotonin 2A (5HT2A) receptor (Homo sapiens, UniProt P28223)
Sequence (P28223 whole entry): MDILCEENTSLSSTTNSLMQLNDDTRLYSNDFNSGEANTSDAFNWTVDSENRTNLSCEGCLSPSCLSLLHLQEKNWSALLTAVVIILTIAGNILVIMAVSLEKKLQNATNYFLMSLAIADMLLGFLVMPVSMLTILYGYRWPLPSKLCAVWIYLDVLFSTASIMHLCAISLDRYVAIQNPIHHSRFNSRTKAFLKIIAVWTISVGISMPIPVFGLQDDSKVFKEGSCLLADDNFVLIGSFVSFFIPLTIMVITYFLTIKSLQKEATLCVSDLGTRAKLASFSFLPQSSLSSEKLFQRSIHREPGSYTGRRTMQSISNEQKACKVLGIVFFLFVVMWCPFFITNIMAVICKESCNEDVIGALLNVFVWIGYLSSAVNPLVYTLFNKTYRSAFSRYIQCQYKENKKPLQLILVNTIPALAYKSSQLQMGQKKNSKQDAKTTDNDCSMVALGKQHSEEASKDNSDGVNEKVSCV
PARAMETER_MEASURED: Ki (nM)

{"columns": ["SMILES_STR", "VALUE_OBSERVED"],
 "data": [
  ["CC(C)=C1C(=O)Nc2cc(Cl)c(CCN3CCN(c4nsc5ccccc45)CC3)cc21", 8.4]
]}

* * *

compounds and their reported Ki
STUDY_TARGET: dopamine D2 receptor (Homo sapiens, UniProt P14416)
Sequence (P14416 whole entry): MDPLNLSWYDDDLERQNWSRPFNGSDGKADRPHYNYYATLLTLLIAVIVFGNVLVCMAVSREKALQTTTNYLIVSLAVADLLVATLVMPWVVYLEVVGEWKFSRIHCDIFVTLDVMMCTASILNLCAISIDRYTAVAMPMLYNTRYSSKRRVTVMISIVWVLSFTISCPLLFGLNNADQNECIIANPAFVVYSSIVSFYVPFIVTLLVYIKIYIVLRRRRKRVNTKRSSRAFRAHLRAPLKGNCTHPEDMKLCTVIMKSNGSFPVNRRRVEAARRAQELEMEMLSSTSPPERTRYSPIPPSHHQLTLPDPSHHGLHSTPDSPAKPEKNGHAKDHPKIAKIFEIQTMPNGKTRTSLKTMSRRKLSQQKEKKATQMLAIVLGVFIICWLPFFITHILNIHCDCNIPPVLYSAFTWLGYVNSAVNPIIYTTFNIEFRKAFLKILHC
PROTOCOL_SUMMARY: Dopamine D2 receptor binding, [3H]spiperone, CHO-hD2L cell membranes
CONDITION_SET: [3H]spiperone 0.4 nM
Experimental: The ability of the compounds of this invention to bind to the dopamine D2 and serotonin 2A (5HT2A) receptors can be determined using conventional radioligand receptor binding assays. […] IC50 concentrations can be determined by nonlinear regression of concentration-dependent reduction in specific binding. […] The title compounds of Examples 1-14 were tested using the above assay, in which specific binding determined in the presence of 1 mM haloperidol was 95%.
PARAMETER_MEASURED: Ki (nM)

{"columns": ["COMPOUND", "STUDY_TARGET", "UNIT_STRING", "VALUE_OBSERVED"],
 "data": [
  ["CC(C)=C1C(=O)N(C)c2ccc(CCN3CCN(c4nsc5ccccc45)CC3)cc21 [Example 1]", "dopamine D2 receptor (Homo sapiens, UniProt P14416)", "nM", 14.7],
  ["CC(C)=C1C(=O)Nc2cc(Cl)c(CCN3CCN(c4nsc5ccccc45)CC3)cc21 [Example 5]", "dopamine D2 receptor (Homo sapiens, UniProt P14416)", "nM", 1.3],
  ["CC(C)=C1C(=O)Nc2ccc(CCCN3CCN(c4noc5ccccc45)CC3)cc21 [Example 4]", "dopamine D2 receptor (Homo sapiens, UniProt P14416)", "nM", 49.4]
]}
